- target-under-test: T1, hIL27Ra-his (Origene, Catalog #TP307012) (human, UniProt Q6UWB1 33-516, limits assumed)
- T1 construct: Bought his-tagged cytokine receptor used as SPR analyte; also called human IL27 receptor subunit alpha; not shown: his tag
- T1 sequence: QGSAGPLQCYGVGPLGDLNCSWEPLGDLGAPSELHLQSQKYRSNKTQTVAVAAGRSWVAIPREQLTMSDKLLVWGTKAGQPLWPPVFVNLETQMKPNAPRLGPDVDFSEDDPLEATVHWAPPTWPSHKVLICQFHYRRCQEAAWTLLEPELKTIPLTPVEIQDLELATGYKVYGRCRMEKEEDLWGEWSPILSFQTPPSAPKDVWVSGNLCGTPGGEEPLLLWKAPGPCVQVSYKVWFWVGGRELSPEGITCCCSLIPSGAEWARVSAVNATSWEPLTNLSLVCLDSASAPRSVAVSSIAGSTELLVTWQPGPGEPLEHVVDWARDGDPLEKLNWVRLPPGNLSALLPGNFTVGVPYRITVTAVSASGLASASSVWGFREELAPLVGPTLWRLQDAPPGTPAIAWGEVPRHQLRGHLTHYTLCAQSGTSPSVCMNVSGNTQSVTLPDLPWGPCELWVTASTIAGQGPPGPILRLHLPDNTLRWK
- assay-remarks: SPR Biacore T200; mono-Fc VHH on Protein A chip, hIL27Ra-his analyte
A collection of binders and their measured koff
Respond with the bare value in s⁻¹.

Worked examples, 4 binders total:
>  <binder>
26-DR603 (SEQ ID NO. 251), anti-hIL27Ra Mono-Fc VHH (Fc fusion, Mono-Fc VHH ligand captured on a Protein A chip; not shown: mono-Fc part) QVQLQESGGGLVQPGGSLRLSCAASGFTFSLSSMSWVRQAPGKGLEWVSAISSGGASTYYTDSVKGRFTISRDNAKNMLYLQLNSLKTEDTAMYYCAKGGSGYGDASRMTSPGSQGTQVTVSS

>  <koff (s⁻¹)>
0.00077

$$$$
>  <binder>
25-DR602 (SEQ ID NO. 250), anti-hIL27Ra Mono-Fc VHH (Fc fusion, Mono-Fc VHH ligand captured on a Protein A chip; not shown: mono-Fc part) QVQLQESGGGSVQAGGSLRLSCRASGSTYSNYCLGWFRQITGKEREGVAVINWVGGMLYFADSVKGRFTVSQDQAKNTVYLQMNSLKPEDTAMYYCAAESVSSFSCGGWLTRPDRVPYWGQGTQVTVSS

>  <koff (s⁻¹)>
0.00076

$$$$
>  <binder>
23-DR600 (SEQ ID NO. 248), anti-hIL27Ra Mono-Fc VHH (Fc fusion, Mono-Fc VHH ligand captured on a Protein A chip; not shown: mono-Fc part) QVQLQESGGGSVQSGGSLRLSCAASGFTYSTSNSWMAWFRQAPGKEREGVAAIYTVGGSIFYADSVRGRFTISQDATKNMFYLQMNTLKPEDTAMYYCAAASGRLRGKWFWPYEYNYWGQGTQVTVSS

>  <koff (s⁻¹)>
0.001

$$$$
>  <binder>
24-DR601 (SEQ ID NO. 249), anti-hIL27Ra Mono-Fc VHH (Fc fusion, Mono-Fc VHH ligand captured on a Protein A chip; not shown: mono-Fc part) QVQLQESGGGSVQAGGSLRLSCVASGYVSCDYFLPSWYRQAPGKEREFVSIIDGTGSTSYAASVKGRFTASQDKGKNIAYLQMNTLKPEDTAMYYCKASCVRGRAISEYWGQGTQVTVSS

>  <koff (s⁻¹)>
0.00041

$$$$

Qu. Quick one: koff of 20-DR597 (SEQ ID NO. 245), anti-hIL27Ra Mono-Fc VHH (Fc fusion, Mono-Fc VHH ligand captured on a Protein A chip; not shown: mono-Fc part) QVQLQESGGGLVQPGGSLRLSCAASGFTFSSYPMSWVRQAPGKGLEWISTISAGGDTTLYADSVKGRFTSSRDNAKNTLYLQLNSLKTEDAAIYYCAKRIDCNSGYCYRRNYWGQGTQVTVSS ?
Ans. 0.00057
